- Test system: HeLa Kyoto;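 further: HeLa Kyoto cells synchronized by double thymidine or nocodazole block, proteins quantified by TMT10plex mass spectrometry, three independent biological replicates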
- run-description: melting temperature (median over replicates), in situ; higher = more thermally stable
- setup-conditions: cell cycle stage: mitosis
quantity-name: melting temperature (°C)

>>> value("MSHGHSHGGGGCRCAAEREEPPEQRGLAYGLYLRIDLERLQCLNESREGSGRGVFKPWEERTDRSKFVESDADEELLFNIPFTGNVKLKGIIIMGEDDDSHPSEMRLYKNIPQMSFDDTEREPDQTFSLNRDLTGELEYATKISRFSNVYHLSIHISKNFGADTTKVFYIGLRGEWTELRRHEVTICNYEASANPADHRVHQVTPQTHFIS [PITHD1]")
59.5
>>> value("MAVESRVTQEEIKKEPEKPIDREKTCPLLLRVFTTNNGRHHRMDEFSRGNVPSSELQIYTWMDATLKELTSLVKEVYPEARKKGTHFNFAIVFTDVKRPGYRVKEIGSTMSGRKGTDDSMTLQSQKFQIGDYLDIAITPPNRAPPPSGRMRPY [SAP18]")
49.7

Where these numbers come from: the supplement of paper PMC5998384
